System: Staphylococcus aureus
Experiment: MIC/MBC against mixed-species biofilms: S. aureus
Format: cell-based
Conditions: mixed-species biofilms grown 22 hours, 20 hours of treatment
# reported MBC S. aureus; entries follow
Quick note: give the figure in µg/mL, leave out the unit.

These solved cases illustrate the format of a correct answer.
CCCCCCCCCCOC(=O)CC[C@@H](C)[C@H]1CC[C@H]2[C@@H]3[C@H](OC(=O)CCN)C[C@@H]4C[C@H](OC(=O)CCN)CC[C@]4(C)[C@H]3C[C@H](OC(=O)CCN)[C@]12C    3.125
CCCCCCCCCCCCCNCCC[C@@H](C)[C@H]1CC[C@H]2[C@@H]3[C@H](OCCCN)C[C@@H]4C[C@H](OCCCN)CC[C@]4(C)[C@H]3C[C@H](OCCCN)[C@]12C    3.125
CC(O)C1CCC2C3C(OCCCN)CC4CC(OCCCN)CCC4(C)C3CC(OCCCN)C12C.Cl.Cl.Cl (stereo not shown)    50

Inquiry: Report MBC S. aureus, nothing else, for this compound: CCCCCCCCCOC(=O)CC[C@@H](C)[C@H]1CC[C@H]2[C@@H]3[C@H](OC(=O)CCN)C[C@@H]4C[C@H](OC(=O)CCN)CC[C@]4(C)[C@H]3C[C@H](OC(=O)CCN)[C@]12C
Reply text: 3.125

Inquiry: Return reported MBC S. aureus. Input compound: CCCCCN(CCCCC)CCCC(C)C1CCC2C3C(OCCCN)CC4CC(OCCCN)CCC4(C)C3CC(OCCCN)C12C.Cl.Cl.Cl.Cl (stereo not shown)
Reply text: 1.56

Inquiry: Provide measured MBC S. aureus value, entry: CC(CCCNCCCNCCCN)C1CCC2C3C(OCCCN)CC4CC(OCCCN)CCC4(C)C3CC(OCCCN)C12C.Cl.Cl.Cl.Cl.Cl.Cl (stereo not shown)
Reply text: 25

Inquiry: Please supply the value of reported MBC S. aureus for the item CC(CCCO)C1CCC2C3C(OCCCN)CC4CC(OCCCN)CCC4(C)C3CC(OCCCN)C12C.Cl.Cl.Cl (stereo not shown)
Reply text: 6.25

---

System: Staphylococcus aureus
Experiment: MIC/MBC against mixed-species biofilms: S. aureus
Type: cell-based
Settings: mixed-species biofilms grown 22 hours, 20 hours of treatment
Catalogue of MIC S. aureus readings, one per entry.

CCCCCCCCCOC(=O)CC[C@@H](C)[C@H]1CC[C@H]2[C@@H]3[C@H](OC(=O)CCN)C[C@@H]4C[C@H](OC(=O)CCN)CC[C@]4(C)[C@H]3C[C@H](OC(=O)CCN)[C@]12C    3.125 µg/mL
CCCCCN(CCCCC)CCCC(C)C1CCC2C3C(OCCCN)CC4CC(OCCCN)CCC4(C)C3CC(OCCCN)C12C.Cl.Cl.Cl.Cl (stereo not shown)    1.56 µg/mL
CCCCCCCCCCCCCNCCC[C@@H](C)[C@H]1CC[C@H]2[C@@H]3[C@H](OCCCN)C[C@@H]4C[C@H](OCCCN)CC[C@]4(C)[C@H]3C[C@H](OCCCN)[C@]12C    1.56 µg/mL
CC(O)C1CCC2C3C(OCCCN)CC4CC(OCCCN)CCC4(C)C3CC(OCCCN)C12C.Cl.Cl.Cl (stereo not shown)    50 µg/mL
CC(CCCNCCCNCCCN)C1CCC2C3C(OCCCN)CC4CC(OCCCN)CCC4(C)C3CC(OCCCN)C12C.Cl.Cl.Cl.Cl.Cl.Cl (stereo not shown)    6.25 µg/mL
CCCCCCCCCCOC(=O)CC[C@@H](C)[C@H]1CC[C@H]2[C@@H]3[C@H](OC(=O)CCN)C[C@@H]4C[C@H](OC(=O)CCN)CC[C@]4(C)[C@H]3C[C@H](OC(=O)CCN)[C@]12C    3.125 µg/mL

// next entry
Inquiry: Quickly give me recorded MIC S. aureus for CC(CCCO)C1CCC2C3C(OCCCN)CC4CC(OCCCN)CCC4(C)C3CC(OCCCN)C12C.Cl.Cl.Cl (stereo not shown)
Reply text: 3.125 µg/mL
